B1: CD2-associated protein, residues 271 to 331; numbered along this chain, Q9Y5K6 (parent)
chain: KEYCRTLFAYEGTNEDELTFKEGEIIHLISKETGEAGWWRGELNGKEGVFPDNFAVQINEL

Variants of: B1
Experiment: abundance fitness (aPCA) (normalised: wild type 0, dead -1); higher = more abundant; growth selection in yeast, the domain comes from the species named
Conditions: Homo sapiens
Measured Property: abundance fitness
Please give the numeric answer without any surrounding text.

Would you please look over these solved cases?
The variant listed as `I25F` has a reported abundance fitness of -0.302

The variant listed as `V49N` has a reported abundance fitness of -0.099

The variant listed as `G45T` has a reported abundance fitness of -0.746

The variant listed as `K46D` has a reported abundance fitness of -0.39

The variant listed as `E2P` has a reported abundance fitness of -0.306

The variant listed as `V56Q` has a reported abundance fitness of -0.226

The variant listed as `W38V` has a reported abundance fitness of -0.249

The variant listed as `G23E` has a reported abundance fitness of -0.564

New cases:
The variant listed as `K1H` has a reported abundance fitness of -0.489

The variant listed as `E24M` has a reported abundance fitness of -0.223

The variant listed as `N53I` has a reported abundance fitness of -0.193
